assay: Drug repurposing screens with cells derived from glioblastoma tumor samples (AID 1345199); conditions: GBM patient neurospheres viability, ATP luminescence, 48 h; at 46 µM (top of the series); tumour line A; further: on the % scale 0 is the no-effect control and ±100 the full control effect; nearly all actives have a fitted effect of over 40% in size
Results filed as inconclusive are left out.
measured.endpoint: activity, negative = cell killing (%)

INSERT INTO measurements (compound, measured_endpoint, unit, observed_value) VALUES
  ('Nc1ncnc2nc[nH]c12', 'activity, negative = cell killing', '%', -8.57),
  ('CCOc1ccc(NS(=O)(=O)c2ccc(N)cc2)nn1', 'activity, negative = cell killing', '%', -27.9),
  ('O=C(O)c1ccccc1Nc1cc(Cl)ccc1C(=O)O', 'activity, negative = cell killing', '%', -27.3),
  ('Nc1c[n+](N2CCOCC2)no1', 'activity, negative = cell killing', '%', -15.9),
  ('Cc1ccccc1C(=O)N1CC/C(=N\OS(=O)(=O)O)c2ccc(Cl)cc21', 'activity, negative = cell killing', '%', -14.2),
  ('O=C(O)Cc1ccc(OCCNC[C@H](O)c2ccccc2)cc1', 'activity, negative = cell killing', '%', -29.2),
  ('CO/N=C(/C(=O)N[C@@H]1C(=O)N2C(C(=O)OCOC(=O)C(C)(C)C)=C(C)CS[C@H]12)c1csc(N)n1', 'activity, negative = cell killing', '%', -24.5),
  ('O=C(c1ccccc1)c1ccccc1', 'activity, negative = cell killing', '%', -8.04),
  ('CO[C@@]1(NC(=O)CSC[C@@H](N)C(=O)O)C(=O)N2C(C(=O)O)=C(CSc3nnnn3C)CS[C@@H]21', 'activity, negative = cell killing', '%', -20.1),
  ('CC(COc1ccccc1)NN (centres undefined)', 'activity, negative = cell killing', '%', -26.7),
  ('CC(NN)c1ccccc1 (centres undefined)', 'activity, negative = cell killing', '%', -23.7),
  ('OCCc1ccccc1', 'activity, negative = cell killing', '%', -18.5),
  ('CSc1ccc(/C=C2/C(C)=C(CC(=O)O)c3cc(F)ccc32)cc1', 'activity, negative = cell killing', '%', -24),
  ('NC(N)=NCCCCN=C(N)N', 'activity, negative = cell killing', '%', -10),
  ('Cc1ccc(O)cc1', 'activity, negative = cell killing', '%', -10.9),
  ('CC(=O)OCC(=O)[C@@]1(O)CCC2C3CCC4=CC(=O)CC[C@]4(C)C3[C@@H](O)C[C@@]21C (some centres undefined)', 'activity, negative = cell killing', '%', -11.4),
  ('CCN1CCN(C(=O)N[C@@H](C(=O)N[C@@H]2C(=O)N3[C@@H]2SC(C)(C)[C@H]3C(=O)O)c2ccccc2)C(=O)C1=O', 'activity, negative = cell killing', '%', -24),
  ('C[C@H]1NCc2cc(-c3ccc4c(=O)c(C(=O)O)cn(C5CC5)c4c3OC(F)F)ccc21', 'activity, negative = cell killing', '%', -27.3),
  ('CN1CCCN=C1/C=C/c1cccs1', 'activity, negative = cell killing', '%', -29.5);

----------
assay: qHTS of pediatric cancer cell lines to identify multiple opportunities for drug repurposing: Primary screen for BT-37 cells (AID 1347094); settings: BT-37 viability, CellTiter-Glo luminescence, 48 h; series mostly up to 57.3 µM
Records with an inconclusive call do not appear. Calls of active or inactive are those of the source. Calls follow the shape of the dose curve; as a rule, active = well fitted cell-killing curve with a large enough effect; inconclusive = small, poorly fitted or top-dose-only effect; inactive = flat fitted curve, though single readings scatter.
Classes used: 1 (yes) (active), 0 (no) (inactive)

INSERT INTO measurements (compound, discrete_label) VALUES
  ('CN1CCC(Nc2ncc3ncnc(Nc4ccc(F)c(Cl)c4)c3n2)CC1', '1 (yes)'),
  ('COC(=O)c1cc(S(N)(=O)=O)ccc1OC', '0 (no)'),
  ('COc1ccc2c(c1)c(CC(=O)OC/C=C(\C)CC/C=C(\C)CCC=C(C)C)c(C)n2C(=O)c1ccc(Cl)cc1', '0 (no)'),
  ('Nc1ccc(O)cc1', '0 (no)'),
  ('COc1cc2nc(Cl)nc(N)c2cc1OC', '0 (no)'),
  ('CO[C@@H]1[C@@H](O[C@@H]2O[C@H](C)[C@@H](O[C@H]3C[C@@](C)(O)[C@@H](O)[C@H](C)O3)[C@H](N(C)C)[C@H]2O)[C@@H](CC=O)C[C@@H](C)[C@@H](O[C@@H]2CC[C@H](N(C)C)[C@@H](C)O2)/C=C/C=C/C[C@@H](C)OC(=O)C[C@H]1OC(C)=O', '0 (no)'),
  ('CCOC(=O)NNc1nncc2ccccc12', '0 (no)'),
  ('CCC1=C[C@@H]2CN(C1)Cc1c([nH]c3ccccc13)[C@@](C(=O)OC)(c1cc3c(cc1OC)N(C)[C@H]1[C@@](O)(C(=O)OC)[C@H](OC(C)=O)[C@]4(CC)C=CCN5CC[C@]31[C@@H]54)C2', '1 (yes)'),
  ('CNC(=O)c1c(I)c(NC(C)=O)c(I)c(C(=O)O)c1I', '0 (no)'),
  ('CCCCCCCCCCCCCCCC[N+](C)(C)Cc1ccccc1', '1 (yes)'),
  ('COc1cc(C(=O)OC(COCCC(C)C)CN2CCOCC2)cc(OC)c1OC (configuration not stated)', '0 (no)'),
  ('O=C1c2ccccc2CCc2ccccc21', '0 (no)'),
  ('COc1cc2c(cc1OC)C(=O)CC2', '0 (no)'),
  ('O=C(OCC(COC(=O)c1cccnc1)(COC(=O)c1cccnc1)COC(=O)c1cccnc1)c1cccnc1', '0 (no)'),
  ('N#CSCC(=O)O', '0 (no)'),
  ('CC(C)(C)C(=O)OCOC(=O)C1N2C(=O)CC2S(=O)(=O)C1(C)C (configuration not stated)', '0 (no)'),
  ('CCOC(=O)Cn1cccc1-c1nc(-c2ccc(OC)cc2)c(-c2ccc(OC)cc2)s1', '0 (no)'),
  ('CCCC(=O)O[C@]1(C(=O)CC)CC[C@H]2[C@@H]3CCC4=CC(=O)CC[C@]4(C)[C@H]3[C@@H](O)C[C@@]21C', '0 (no)'),
  ('COc1ccc(OC(=O)N(CC(=O)O)Cc2ccc(OCCc3nc(-c4ccccc4)oc3C)cc2)cc1', '0 (no)'),
  ('Cc1ccc(C(=O)Oc2ccc(C(O)CNC(C)(C)C)cc2OC(=O)c2ccc(C)cc2)cc1 (configuration not stated)', '0 (no)'),
  ('CC(C)C(C)(C)C(C)(C)C(C)(C)S', '0 (no)'),
  ('CCC(CN)=C(c1ccccc1)c1ccccc1', '0 (no)'),
  ('CC1(C)OC(=O)Nc2ccc(Br)cc21', '0 (no)'),
  ('Nc1c(I)cc(I)c(C(=O)N(CCC(=O)O)c2ccccc2)c1I', '0 (no)'),
  ('COc1cc(/C=C/C(N)=O)cc(OC)c1OC', '1 (yes)'),
  ('C#Cc1ccc(-c2ccccc2F)cc1', '0 (no)'),
  ('O=C(OCCN1CCOCC1)c1cccnc1Nc1cccc(C(F)(F)F)c1', '0 (no)'),
  ('CN(C)CCN1CCN(c2cccc(Cl)c2)C1=O', '0 (no)'),
  ('CC(=O)N(c1onc(C)c1C)S(=O)(=O)c1ccc(N)cc1', '0 (no)'),
  ('CCCCC(=O)OCC(=O)[C@H]1[C@H](C)C[C@H]2[C@@H]3C[C@H](F)C4=CC(=O)C=C[C@]4(C)[C@@]3(F)[C@@H](O)C[C@@]21C', '0 (no)'),
  ('CCCCC(CC)COC(=O)c1ccccc1C(=O)O (configuration not stated)', '0 (no)'),
  ('C[N+]1(CC2COC(c3ccccc3)(c3ccccc3)O2)CCCCC1 (configuration not stated)', '0 (no)'),
  ('Cc1ncc([N+](=O)[O-])n1C', '0 (no)'),
  ('Cc1coc2ccccc2c1=O', '0 (no)'),
  ('CCCCN(CCN(CCCC)C(=O)N1CCOCC1)C(=O)N1CCOCC1', '0 (no)'),
  ('CCN(CC)C(=O)C1CN2CCc3cc(OC)c(OC)cc3C2CC1OC(C)=O (configuration not stated)', '0 (no)'),
  ('O=C1Cc2cc(Cl)ccc2N1', '0 (no)');
